target: C5AR1 (Homo sapiens, UniProt P21730); construct: host or cells: CHO-K1; assay: In vitro assay: antagonism of C5a-induced beta-arrestin recruitment (PathHunter) in CHO-K1 C5AR1 beta-arrestin cell line; format: cell-based; details: antagonistic activity, 1-10 nM C5a agonist, geometric mean where several measurements, read-out: C5aR IC50
Sequence (P21730 whole entry): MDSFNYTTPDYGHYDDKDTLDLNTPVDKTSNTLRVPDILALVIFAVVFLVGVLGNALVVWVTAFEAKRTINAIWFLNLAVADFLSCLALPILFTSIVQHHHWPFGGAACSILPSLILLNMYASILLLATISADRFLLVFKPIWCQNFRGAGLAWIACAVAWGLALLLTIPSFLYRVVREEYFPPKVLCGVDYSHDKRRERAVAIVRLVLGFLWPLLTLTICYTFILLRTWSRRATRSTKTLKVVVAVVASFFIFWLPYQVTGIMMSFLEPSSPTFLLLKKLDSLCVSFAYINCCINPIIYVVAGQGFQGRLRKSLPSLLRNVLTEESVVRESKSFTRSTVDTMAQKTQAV
pIC50: −log10 of the molar value.
I would appreciate it if you labelled entries yes when pIC50 is 7 or higher, otherwise no.

[[record]]
compound = "CC1c2cn(C)nc2N(Cc2ccccc2C2CC2)C(=O)N1C1CCN(c2c(F)cccc2Cl)CC1 (single isomer, unassigned) [Example 321]"
tested_target = "C5AR1 (Homo sapiens, UniProt P21730)"
category_label = "no"

[[record]]
compound = "Cc1cccc(F)c1N1CCC(N2Cc3nn(C)cc3N(Cc3ccccc3C(C)C)C2=O)CC1"
tested_target = "C5AR1 (Homo sapiens, UniProt P21730)"
category_label = "yes"

[[record]]
compound = "Cc1cccc(F)c1N1CCC(N2C(=O)N(Cc3ccccc3C3CC3)c3c[nH]nc3C2C)CC1 (single isomer, unassigned)"
tested_target = "C5AR1 (Homo sapiens, UniProt P21730)"
category_label = "yes"

[[record]]
compound = "C=C(C)Cn1cc2c(n1)N(Cc1ccccc1C(F)(F)F)C(=O)N(C1CCN(c3c(C)cccc3F)CC1)C2"
tested_target = "C5AR1 (Homo sapiens, UniProt P21730)"
category_label = "yes"

[[record]]
compound = "Cc1cccc(Cl)c1N1CCC(N2Cc3cn(C)nc3N(Cc3ccccc3C(F)(F)F)C2=O)CC1"
tested_target = "C5AR1 (Homo sapiens, UniProt P21730)"
category_label = "yes"

[[record]]
compound = "CC1c2cn(C3CC3)nc2N(Cc2ccccc2C(F)(F)F)C(=O)N1C1CCN(c2c(F)cccc2Cl)CC1 (single isomer, unassigned) [Example 335]"
tested_target = "C5AR1 (Homo sapiens, UniProt P21730)"
category_label = "yes"

[[record]]
compound = "Cc1cccc(F)c1N1CCC(N2Cc3c(cnn3CC3(C)CC3)N(Cc3ccccc3C(F)(F)F)C2=O)CC1"
tested_target = "C5AR1 (Homo sapiens, UniProt P21730)"
category_label = "yes"

[[record]]
compound = "CC(C)c1ccccc1N1CCC(N2Cc3cn(C)nc3N(Cc3ccccc3C(F)(F)F)C2=O)CC1"
tested_target = "C5AR1 (Homo sapiens, UniProt P21730)"
category_label = "yes"

[[record]]
compound = "Cc1cccc(F)c1N1CCC(N2Cc3cn(CC(C)(C)N)nc3N(Cc3ccccc3C(F)(F)F)C2=O)CC1"
tested_target = "C5AR1 (Homo sapiens, UniProt P21730)"
category_label = "no"

[[record]]
compound = "COc1nccc(C)c1N1CCC(N2C(=O)N(Cc3ccccc3C3CC3)c3nn(C4CC4)cc3C2C)CC1 (single isomer, unassigned) [Example 381]"
tested_target = "C5AR1 (Homo sapiens, UniProt P21730)"
category_label = "no"

[[record]]
compound = "Cc1nc2c(o1)N(Cc1ccccc1C(F)(F)F)C(=O)N(C1CCN(c3c(C)cccc3F)CC1)C2"
tested_target = "C5AR1 (Homo sapiens, UniProt P21730)"
category_label = "yes"

[[record]]
compound = "Cc1cccc(F)c1N1CCC(N2Cc3cn(CC4(F)CC4)nc3N(Cc3ncccc3C(F)(F)F)C2=O)CC1"
tested_target = "C5AR1 (Homo sapiens, UniProt P21730)"
category_label = "yes"

[[record]]
compound = "Cc1cccc(F)c1N1CCC(N2Cc3cn(C4CN(c5nnc(C(C)C)o5)C4)nc3N(Cc3ccccc3C(F)(F)F)C2=O)CC1"
tested_target = "C5AR1 (Homo sapiens, UniProt P21730)"
category_label = "yes"

[[record]]
compound = "COc1nccc(Cl)c1N1CCC(N2C(=O)N(Cc3ccccc3C(F)(F)F)c3nn(C)cc3C2C)CC1 (single isomer, unassigned) [Example 376]"
tested_target = "C5AR1 (Homo sapiens, UniProt P21730)"
category_label = "yes"

[[record]]
compound = "Cc1cccc(F)c1N1CCC(N2Cc3cn(C[C@@H]4CCN4)nc3N(Cc3ccccc3C(F)(F)F)C2=O)CC1"
tested_target = "C5AR1 (Homo sapiens, UniProt P21730)"
category_label = "no"

[[record]]
compound = "COc1nccc(C)c1N1CCC(N2Cc3c[nH]nc3N(Cc3ccccc3C(F)(F)F)C2=O)CC1"
tested_target = "C5AR1 (Homo sapiens, UniProt P21730)"
category_label = "yes"

[[record]]
compound = "Cc1cccc(F)c1N1CCC(N2Cc3cn(CCNC(=O)OC(C)(C)C)nc3N(Cc3ccccc3C(F)(F)F)C2=O)CC1"
tested_target = "C5AR1 (Homo sapiens, UniProt P21730)"
category_label = "yes"

[[record]]
compound = "Cc1cccc(F)c1N1CCC(N2Cc3cn(C)nc3N(Cc3ccccc3OC(C)C)C2=O)CC1"
tested_target = "C5AR1 (Homo sapiens, UniProt P21730)"
category_label = "yes"

[[record]]
compound = "Cc1cccc(F)c1N1CCC(N2Cc3cn(C4CCN(C(=O)OC(C)(C)C)C4)nc3N(Cc3ccccc3C(F)(F)F)C2=O)CC1 (stereo not drawn)"
tested_target = "C5AR1 (Homo sapiens, UniProt P21730)"
category_label = "yes"

[[record]]
compound = "CC1c2nn(C3CC3)cc2N(Cc2ccccc2C(F)(F)F)C(=O)N1C1CCN(c2c(F)cccc2C(F)F)CC1 (single isomer, unassigned) [Example 330]"
tested_target = "C5AR1 (Homo sapiens, UniProt P21730)"
category_label = "no"

